System: Stem
TEST_SUMMARY: Drug uptake in Solanum lycopersicum (tomato) stem after 1 to 15 days post germination by GC-ECD analysis
Format: ADME
Counter-ions that a name gives are not always drawn.
PARAMETER_MEASURED: Drug uptake (ng/g)
Dear colleague, please return just the value in ng/g, with no unit written.

Tell me Drug uptake reported for Cl[C@H]1[C@H](Cl)[C@@H](Cl)[C@@H](Cl)[C@H](Cl)[C@H]1Cl [LINDANE] 27.5

Tell me Drug uptake reported for O=S1(=O)OCC2C(CO1)C1(Cl)C(Cl)=C(Cl)C2(Cl)C1(Cl)Cl (centres undefined) [ENDOSULFAN SULFATE] 246.9

Tell me Drug uptake reported for O=S1OC[C@@H]2[C@H](CO1)[C@]1(Cl)C(Cl)=C(Cl)[C@]2(Cl)C1(Cl)Cl (stereo partly drawn) [BETA-ENDOSULFAN] 1.1

Tell me Drug uptake reported for ClC(Cl)=C(c1ccc(Cl)cc1)c1ccc(Cl)cc1 [DICHLORODIPHENYLDICHLOROETHYLENE] 7.4
